Tested on: U2932 parental
protocol: cell proliferation relative to vehicle (% of vehicle); higher = less growth inhibition
testParameters: 500 nM; 72 h
Structures can show the parent of a compound that is named as a salt.
measuredMetric: cell proliferation

Consider the reported cell proliferation for these molecules:
Lab entry: U2932 parental assay, molecule Cc1ccc2c(=O)c3cccc(CC(=O)O)c3oc2c1C , cell proliferation = 99.2

Record for CN(CCOc1ccc(CC2SC(=O)NC2=O)cc1)c1ccccn1 (stereo not given) under target or system U2932 parental: cell proliferation reported as 95.2

Noted cell proliferation for CNC(=O)c1cc(Oc2ccc(NC(=O)Nc3ccc(Cl)c(C(F)(F)F)c3)cc2)ccn1 , tested on U2932 parental: 112

Others:
Bench note, U2932 parental: entry Cc1ccc(S(=O)(=O)/C=C/C#N)cc1 , its cell proliferation = 102

Fill in: U2932 parental cell proliferation for CCCCCCCCCCCC1=C(O)C(=O)C=C(O)C1=O = 89.7

Measured cell proliferation (U2932 parental), entry CCCS(=O)(=O)Nc1ccc(F)c(C(=O)c2c[nH]c3ncc(Cl)cc23)c1F : 95.6

Considering CC(C)C(=O)Nc1ccc([N+](=O)[O-])c(C(F)(F)F)c1 [Flutamide] , its cell proliferation with U2932 parental was recorded as 87.6

# cell proliferation measured on U2932 parental for item O=C(CCCCCCC(=O)Nc1ccccc1)NO [Vorinostat (SAHA, MK0683)] = 81.6

Measured cell proliferation (U2932 parental), entry CN(C)Cc1c(C(=O)NCCOc2ccc(C(=O)NO)cc2)oc2ccccc12 : 32.6

Tested on U2932 parental, the item NC(=O)c1cccc2cn(-c3ccc([C@@H]4CCCNC4)cc3)nc12 [MK-4827(Niraparib) tosylate] showed cell proliferation equal to 97.1

cell proliferation on U2932 parental for NC(=O)NO [Hydroxyurea] is 97.8

The observed cell proliferation for Nc1ccccc1NC(=O)c1ccc(CNC(=O)OCc2cccnc2)cc1 when tested with U2932 parental stands at 66.2

Test item C[C@@H]1CCN(C(=O)CC#N)C[C@@H]1N(C)c1ncnc2[nH]ccc12 ; U2932 parental; reported cell proliferation was 107

# O=C(c1ccc(/C=C/c2n[nH]c3ccccc23)cc1)N1CCNCC1 with U2932 parental: cell proliferation is 72.2

Readout cell proliferation for O=C(NOCC1CC1)c1ccc(F)c(F)c1Nc1ccc(I)cc1Cl , test system U2932 parental, was 95.7

Readout cell proliferation for Cc1ccc(NC(=O)c2ccc(CN3CCN(C)CC3)cc2)cc1Nc1nc(-c2cccnc2)cs1 , test system U2932 parental, was 92.7

cell proliferation value, target or system U2932 parental, for COc1cc2c(NC3CCN(CC4CCCCC4)CC3)nc(N3CCCN(C(C)C)CC3)nc2cc1OCCCN1CCCCC1 : 110

Form: item Cc1[nH]c2ccccc2c1CCNCc1ccc(/C=C/C(=O)NO)cc1 ; test system U2932 parental; cell proliferation: 0.518

Bench note, U2932 parental: entry CCS(=O)(=O)N1CC(CC#N)(n2cc(-c3ncnc4[nH]ccc34)cn2)C1 , its cell proliferation = 105

Kindly note: U2932 parental, CCCCOc1c(C(=O)c2c(F)cc(C)cc2F)c[nH]c2nncc1-2 , cell proliferation value reported: 77.1
